These data points were gathered from ChEMBL document CHEMBL3779776.

Test: Cytotoxicity against mouse RAW264.7 cells assessed as cell viability at 10 uM after 24 hrs by MTS assay relative to control
Format: cell-based
Conditions: read-out: Activity
Measured Endpoint: viability at 24 h, 10 µM (%)

* COc1ccc(C(=O)c2cc3cc(OC)c(O)cc3o2)cc1 | 91.8
* COc1cc2oc(C(=O)c3ccc(O)cc3)cc2cc1O | 93.1
* COc1ccc(C(=O)c2cc3cc(O)c(O)cc3o2)cc1 | 101

----------
Assay: Cytotoxicity against mouse RAW264.7 cells assessed as cell viability at 1 uM after 24 hrs by MTS assay relative to control
Assay type: cell-based
Conditions: read-out: Activity
Measured Endpoint: viability at 24 h, 1 µM (%)

- COc1cc2oc(C(=O)c3ccc(O)cc3)cc2cc1O: 97.9
- O=C(c1ccc(O)cc1)c1cc2cc(O)c(O)cc2o1: 106
- COc1ccc(C(=O)c2cc3cc(O)c(O)cc3o2)cc1: 95.1
